# TEST SUMMARY: Phase I combination study: pharmacokinetics
# Assay type: in vivo, human
# DETAILS: human, in vivo, oral
MEASUREMENT TYPE: half-life (h)

>>> recorded_value("NC1(c2ccc(-c3nc4ccn5c(=O)[nH]nc5c4cc3-c3ccccc3)cc2)CCC1")
61.7
